target or system: ENaC (Homo sapiens, UniProt P37088+P51168+P51170)
Construct: host or cells: primary human bronchial epithelial cells (HBECs) differentiated at air-liquid interface
Sequence (P37088 whole entry): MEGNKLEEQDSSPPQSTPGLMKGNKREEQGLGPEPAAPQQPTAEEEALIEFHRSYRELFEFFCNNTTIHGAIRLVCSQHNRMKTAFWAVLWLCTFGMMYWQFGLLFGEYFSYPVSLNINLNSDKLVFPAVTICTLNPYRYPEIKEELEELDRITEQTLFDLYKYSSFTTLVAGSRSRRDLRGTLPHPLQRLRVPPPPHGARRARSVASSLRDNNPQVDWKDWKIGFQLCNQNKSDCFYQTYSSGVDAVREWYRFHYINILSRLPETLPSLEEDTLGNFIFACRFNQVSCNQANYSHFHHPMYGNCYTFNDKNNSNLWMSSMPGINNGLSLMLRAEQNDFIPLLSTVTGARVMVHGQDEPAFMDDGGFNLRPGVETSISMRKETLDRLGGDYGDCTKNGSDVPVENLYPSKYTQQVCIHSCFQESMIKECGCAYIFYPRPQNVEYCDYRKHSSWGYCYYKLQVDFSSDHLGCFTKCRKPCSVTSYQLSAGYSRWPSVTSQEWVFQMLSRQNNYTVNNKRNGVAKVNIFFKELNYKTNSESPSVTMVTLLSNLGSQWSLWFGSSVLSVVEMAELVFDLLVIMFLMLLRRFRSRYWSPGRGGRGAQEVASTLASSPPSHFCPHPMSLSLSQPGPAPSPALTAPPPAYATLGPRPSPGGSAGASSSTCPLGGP
Sequence (P51168 whole entry): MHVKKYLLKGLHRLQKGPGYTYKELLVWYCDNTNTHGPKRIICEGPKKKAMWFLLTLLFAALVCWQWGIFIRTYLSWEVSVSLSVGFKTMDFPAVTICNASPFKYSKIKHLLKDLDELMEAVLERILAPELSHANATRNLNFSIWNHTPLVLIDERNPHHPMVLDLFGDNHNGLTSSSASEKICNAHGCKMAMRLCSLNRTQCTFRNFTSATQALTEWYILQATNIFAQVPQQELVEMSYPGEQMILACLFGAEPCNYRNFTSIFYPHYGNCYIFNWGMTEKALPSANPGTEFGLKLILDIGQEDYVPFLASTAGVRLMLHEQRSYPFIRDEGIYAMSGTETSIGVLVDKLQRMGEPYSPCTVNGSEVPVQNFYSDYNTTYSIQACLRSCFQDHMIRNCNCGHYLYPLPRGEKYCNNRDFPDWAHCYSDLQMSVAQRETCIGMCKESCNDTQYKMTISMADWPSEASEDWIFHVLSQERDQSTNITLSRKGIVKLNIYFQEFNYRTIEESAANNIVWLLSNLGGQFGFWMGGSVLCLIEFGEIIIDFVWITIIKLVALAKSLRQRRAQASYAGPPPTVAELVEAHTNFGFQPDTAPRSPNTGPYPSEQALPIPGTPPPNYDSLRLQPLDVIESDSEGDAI
Sequence (P51170 whole entry): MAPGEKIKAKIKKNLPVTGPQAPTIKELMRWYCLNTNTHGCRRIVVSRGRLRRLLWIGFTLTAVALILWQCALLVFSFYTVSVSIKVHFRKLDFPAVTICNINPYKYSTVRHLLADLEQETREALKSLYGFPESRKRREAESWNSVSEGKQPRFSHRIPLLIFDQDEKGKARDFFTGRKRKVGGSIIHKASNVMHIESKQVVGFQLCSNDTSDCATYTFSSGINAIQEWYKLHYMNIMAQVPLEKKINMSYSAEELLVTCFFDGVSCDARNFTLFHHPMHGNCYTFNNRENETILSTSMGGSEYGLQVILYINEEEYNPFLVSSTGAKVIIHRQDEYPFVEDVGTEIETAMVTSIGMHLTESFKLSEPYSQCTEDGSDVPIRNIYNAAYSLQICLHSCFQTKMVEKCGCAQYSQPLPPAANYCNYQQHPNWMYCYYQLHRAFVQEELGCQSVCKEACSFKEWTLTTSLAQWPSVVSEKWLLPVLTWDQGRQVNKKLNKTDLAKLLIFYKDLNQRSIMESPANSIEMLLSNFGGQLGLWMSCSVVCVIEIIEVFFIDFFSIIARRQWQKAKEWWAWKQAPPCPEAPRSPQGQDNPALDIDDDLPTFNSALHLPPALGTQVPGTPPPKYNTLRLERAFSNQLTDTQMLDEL
test name: Short circuit current assay to determine ENaC blocker potency in human bronchial epithelial cells
Format: cell-based
condition notes: 50% inhibition of total amiloride-sensitive ISC, apical addition, read-out: Averages.ENaC IC50 (nM) Avg
Counter-ions that a name gives are not always drawn.
assay endpoint: IC50 (nM)
Unit nM implied. Number only.

Study these solved cases before continuing.
compound	IC50 / nM
CCn1c(CNC(=O)c2nc3cc[nH]c3nc2N)[n+](CCOCCOCCO)c2ccc(OC)cc21	11
CCn1c(CNC(=O)c2nc3cc[nH]c3nc2N)[n+](CC)c2ccc(C(=O)NCC[C@H](NCCCN(C[C@H](O)[C@@H](O)[C@H](O)[C@H](O)CO)C[C@H](O)[C@@H](O)[C@H](O)[C@H](O)CO)C(N)=O)cc21	43
CCn1c(CNC(=O)c2nc3cc[nH]c3nc2N)[n+](CC)c2ccc(C(=O)NC3CCNCC3)cc21	7
CCn1c(CNC(=O)c2nc3cc[nH]c3nc2N)[n+](CC)c2ccc(C(=O)NC3CCN(C[C@H](O)[C@@H](O)[C@H](O)[C@H](O)CO)CC3)cc21	7
CCn1c(CNC(=O)c2nc3c(Cl)c[nH]c3nc2N)[n+](CC)c2ccc(C(=O)O)cc21	133

Asked: Would you mind telling me what IC50 value was observed for CCn1c(CNC(=O)c2nc3c(C#N)c[nH]c3nc2N)[n+](CC)c2ccc(OC)cc21 [Example 67, formate] ?
Given back: 54

Asked: Now try `C[n+]1c(CNC(=O)c2nc3cc[nH]c3nc2N)n(Cc2ccccc2)c2ccccc21` .
Given back: 198

Asked: Likewise for `CCn1c(CNC(=O)c2nc3cc[nH]c3nc2N)[n+](CC)c2ccc(C(=O)N3CCC(N(C[C@H](O)[C@@H](O)[C@H](O)[C@H](O)CO)C[C@H](O)[C@@H](O)[C@H](O)[C@H](O)CO)CC3)cc21` ?
Given back: 35

Asked: Ok, now `CCn1c(CNC(=O)c2nc3c(Br)c[nH]c3nc2N)[n+](CC)c2ccc(C(=O)O)cc21`
Given back: 244

Asked: Can you check `CCn1c(CNC(=O)c2nc3cc[nH]c3nc2N)[n+](CC(=O)OC)c2ccc(OC)cc21` next?
Given back: 48

Asked: Next record, please: `CCn1c(CNC(=O)c2nc3cc[nH]c3nc2N)[n+](CC)c2ccc(C(=O)NCCN3CCC(NC(=O)OC(C)(C)C)CC3)cc21`
Given back: 9

Asked: Here is the next compound: `CCn1c(CNC(=O)c2nc3cc[nH]c3nc2N)[n+](CC)c2ccc(OCCN)cc21`
Given back: 14

Asked: Repeat for the following compound: CCn1c(CNC(=O)c2nc3cc[nH]c3nc2N)[n+](C)c2ccc(Cl)cc21 [Example 3, formate]
Given back: 19

Asked: One more compound: `CCn1c(CNC(=O)c2nc3cc[nH]c3nc2N)[n+](CC(N)=O)c2ccc(OC)cc21`
Given back: 22

Asked: Now consider `CCn1c(CNC(=O)c2nc3c(Br)c[nH]c3nc2N)[n+](CC)c2ccc(C(=O)N3CCC(N(C[C@H](O)[C@@H](O)[C@H](O)[C@H](O)CO)C[C@H](O)[C@@H](O)[C@H](O)[C@H](O)CO)CC3)cc21` .
Given back: 199

Asked: Let us now turn to `CCn1c(CNC(=O)c2nc3cc[nH]c3nc2N)[n+](CC)c2ccc(C(=O)NCCN3CCC(N(C[C@H](O)[C@@H](O)[C@H](O)[C@H](O)CO)C[C@H](O)[C@@H](O)[C@H](O)[C@H](O)CO)CC3)cc21`
Given back: 38

Asked: Lookup `CCn1c(CNC(=O)c2nc3c(C)c[nH]c3nc2N)[n+](CC)c2ccc(Cl)cc21`
Given back: 4

Asked: Same thing, different compound: `CCn1c(CNC(=O)c2nc3cc[nH]c3nc2N)[n+](CC(=O)O)c2ccc(OC)cc21`
Given back: 199

Asked: Try the compound `CCn1c(CNC(=O)c2nc3cc[nH]c3nc2N)[n+](CC)c2ccc(C(=O)NCCN(C[C@H](O)[C@@H](O)[C@H](O)[C@H](O)CO)C[C@H](O)[C@@H](O)[C@H](O)[C@H](O)CO)cc21`
Given back: 78

Asked: CCn1c(CNC(=O)c2nc3cc[nH]c3nc2N)[n+](CC)c2ccc(C(=O)NCCCCc3ccc(CCC(NCCCN(C[C@H](O)[C@@H](O)[C@H](O)[C@H](O)CO)C[C@H](O)[C@@H](O)[C@H](O)[C@H](O)CO)C(N)=O)cc3)cc21 (stereo partly shown) , same question.
Given back: 24

Asked: Same read-out for `CCn1c(CNC(=O)c2nc3cc[nH]c3nc2N)[n+](CC)c2ccc(C3CCNCC3)cc21` ?
Given back: 6

Asked: # iterate: `CCn1c(CNC(=O)c2nc3c(Cl)c[nH]c3nc2N)[n+](CC)c2ccc(Cl)cc21`
Given back: 2

Asked: Likewise for CCn1c(CNC(=O)c2nc3cc[nH]c3nc2N)[n+](Cc2ccccc2)c2ccc(OC)cc21 [Example 8, formate] ?
Given back: 9

Asked: Further, for `CCn1c(CNC(=O)c2nc3cc[nH]c3nc2N)[n+](CC)c2ccc(-c3cnn(C4CCN(C(=O)OC(C)(C)C)CC4)c3)cc21` ?
Given back: 1

Asked: What do you have for `CCn1c(CNC(=O)c2nc3cc[nH]c3nc2N)[n+](CC)c2ccc(C(=O)NC3CCN(C(=O)OC(C)(C)C)CC3)cc21` ?
Given back: 3

Measured values drawn from patent US12371436B2 for this set.
